Where do these numbers come from? They come from PubChem BioAssay (NCI).

In this section, each of the compounds is paired with its reported TGI.
Test system: SN12C renal
assay-protocol: NCI tumour cell line growth inhibition, 48 h

>  <compound>
COc1ccc(/C(C#N)=C/c2ccccc2OC)cc1

>  <target-of-assay>
SN12C renal

>  <TGI>
> 100 µM

$$$$
>  <compound>
COc1cccc(-n2ncc3c(N/N=C/c4ccc(C(=O)NCCN(C)C)cc4)ncnc32)c1

>  <target-of-assay>
SN12C renal

>  <TGI>
6.99 µM

$$$$
>  <compound>
CC[C@H]1C=CCC[C@@]2(C[C@@H]3CC[C@@H]4[C@H](C(=O)OCCCCCCCCCCCCCCCC(=O)O)[C@]5(CCC[C@@H](C)O5)NC(=[N+]34)N2)O1

>  <target-of-assay>
SN12C renal

>  <TGI>
7.93 µM

$$$$
>  <compound>
N=c1oc2cc(O)ccc2cc1C(=O)NCc1ccccc1

>  <target-of-assay>
SN12C renal

>  <TGI>
48.8 µM

$$$$
>  <compound>
O=C1C(Br)=CC2(C=C1Br)CCNC1=C2C(=O)c2ccccc2C1=O

>  <target-of-assay>
SN12C renal

>  <TGI>
19.6 µM

$$$$
>  <compound>
COc1ccc(/C(=C2/O[C@@H]([C@H]3COC(C)(C)O3)[C@H]3OC(C)(C)O[C@@H]23)c2cc(OC)c(OC)c(OC)c2)cc1O

>  <target-of-assay>
SN12C renal

>  <TGI>
> 100 µM

$$$$
>  <compound>
C=CCC[CH2][Sn]([c]1ccccc1)([c]1ccccc1)[c]1ccccc1

>  <target-of-assay>
SN12C renal

>  <TGI>
2.95 µM

$$$$
>  <compound>
CC1SC2=NC3=C(c4ccccc4C3=O)C(c3ccc(F)cc3)N2C1=O (stereo not given)

>  <target-of-assay>
SN12C renal

>  <TGI>
> 100 µM

$$$$
>  <compound>
CC(=O)N1C(=O)/C(=C\C(=O)c2ccc([N+](=O)[O-])cc2)c2ccccc21

>  <target-of-assay>
SN12C renal

>  <TGI>
35 µM

$$$$
>  <compound>
COc1ccc2sc3c(NCCCN(C)C)nc4ccccc4c3c(=O)c2c1

>  <target-of-assay>
SN12C renal

>  <TGI>
3.2 µM

$$$$
>  <compound>
O=[N+]([O-])c1ccc(-c2nnc(C34CC5CC(CC(C5)C3)C4)o2)cc1

>  <target-of-assay>
SN12C renal

>  <TGI>
> 100 µM

$$$$
>  <compound>
CCN(CC)c1ccc(C(=O)c2ccccc2C(=O)O)c(O)c1

>  <target-of-assay>
SN12C renal

>  <TGI>
> 100 µM

$$$$
>  <compound>
CCSCCC(N)C(=O)O (stereo not given)

>  <target-of-assay>
SN12C renal

>  <TGI>
> 100 µM

$$$$
>  <compound>
CN(CC1(CO)CCC1)c1cc(Cl)nc(N)n1

>  <target-of-assay>
SN12C renal

>  <TGI>
> 100 µM

$$$$
>  <compound>
NC1CC(=O)c2sc(I)cc21 (stereo not given)

>  <target-of-assay>
SN12C renal

>  <TGI>
> 100 µM

$$$$
>  <compound>
C/C(=N/NC(=S)Nc1ccc([N+](=O)[O-])cc1)c1cccc(/C(C)=N\NC(=S)Nc2ccc([N+](=O)[O-])cc2)n1

>  <target-of-assay>
SN12C renal

>  <TGI>
14.4 µM

$$$$
>  <compound>
Cc1csc(=S)n1OC(=O)NC1CCCCC1

>  <target-of-assay>
SN12C renal

>  <TGI>
> 100 µM

$$$$
>  <compound>
CC(=O)OCC1OC(SC2=N/C(=C\c3cc4c(=O)c5ccccc5sc4s3)C(=O)N2c2ccccc2)C(OC(C)=O)C(OC(C)=O)C1OC(C)=O (stereo not given)

>  <target-of-assay>
SN12C renal

>  <TGI>
> 100 µM

$$$$
>  <compound>
CCCCCCCCCCC(C(=O)O)C1(C(=O)O)CCC(=O)O1 (stereo not given)

>  <target-of-assay>
SN12C renal

>  <TGI>
> 100 µM

$$$$
>  <compound>
Cc1c(C(=O)C/C(=N\O)C(=O)Nc2cc(Cl)c(Cl)cc2Cl)[n+](=O)c2ccccc2n1[O-]

>  <target-of-assay>
SN12C renal

>  <TGI>
18.9 µM

$$$$
>  <compound>
C=CCOc1ccc(/C(N=Nc2ccc(Cl)cc2)=N/NC(=O)c2ccccc2)cc1OC

>  <target-of-assay>
SN12C renal

>  <TGI>
> 100 µM

$$$$
>  <compound>
COc1ccc(-c2n/c(=C\c3c(O)[nH]c4ccc(OC)cc34)cc3c2=Nc2ccccc2-3)cc1

>  <target-of-assay>
SN12C renal

>  <TGI>
> 100 µM

$$$$
>  <compound>
CCOC(=O)N(Cc1cccs1)c1cc(OC)c(OC)c(OC)c1

>  <target-of-assay>
SN12C renal

>  <TGI>
> 100 µM

$$$$
>  <compound>
COC(=O)C(CC12CC3CC(CC(C3)C1)C2)NC(=O)C(N)CC(=O)O (stereo not given)

>  <target-of-assay>
SN12C renal

>  <TGI>
> 100 µM

$$$$
>  <compound>
CC(=O)N1C(Nc2ccccn2)CCN1c1ccccc1 (stereo not given)

>  <target-of-assay>
SN12C renal

>  <TGI>
> 10 µM

$$$$
>  <compound>
CCCNC1=C(C(=O)OCC)C(=O)CO1

>  <target-of-assay>
SN12C renal

>  <TGI>
> 100 µM

$$$$
>  <compound>
O=C1C=C2C(=NC34CCCCC3C(c3ccccc3)C3=C(c5ccccc5CC3)N24)c2ccccc21 (stereo not given)

>  <target-of-assay>
SN12C renal

>  <TGI>
> 10 µM

$$$$
>  <compound>
O=C1c2cccnc2C(=O)c2nc3cc(N4CCN(C5CC5)CC4)ccc3nc21

>  <target-of-assay>
SN12C renal

>  <TGI>
1.88 µM

$$$$
>  <compound>
COc1cc(C=C2C(C)=NN(c3cccc(Cl)c3)C23SCC(=O)N3c2nc3ccccc3s2)ccc1O (stereo not given)

>  <target-of-assay>
SN12C renal

>  <TGI>
> 100 µM

$$$$
>  <compound>
CCCC(=O)OC1C(C(O)CO)OC2OC(C)(C)OC21 (stereo not given)

>  <target-of-assay>
SN12C renal

>  <TGI>
> 100 µM

$$$$
>  <compound>
NC(=O)N/N=C1\CCCCc2ccccc21

>  <target-of-assay>
SN12C renal

>  <TGI>
> 10 µM

$$$$
>  <compound>
CCOC(=O)c1c(N)sc2c1C(C(=O)OCC)CC2 (stereo not given)

>  <target-of-assay>
SN12C renal

>  <TGI>
> 100 µM

$$$$
>  <compound>
COc1cc(Cn2c3ccccc3c3cc(C)c4c(c32)C=CC(C)(CCC=C(C)C)O4)cc2c1[nH]c1ccccc12 (stereo not given)

>  <target-of-assay>
SN12C renal

>  <TGI>
> 100 µM

$$$$
>  <compound>
Cc1cc(N(CCC#N)CCC#N)ccc1N=Nc1cccc(C(=O)O)c1

>  <target-of-assay>
SN12C renal

>  <TGI>
> 100 µM

$$$$
>  <compound>
CC(=O)OCC1OC(OC2C(CSC3OC(COC(C)=O)C(OC(C)=O)C(OC(C)=O)C3OC(C)=O)OC(OC(C)=O)C(OC(C)=O)C2OC(C)=O)C(OC(C)=O)C(OC(C)=O)C1OC(C)=O (stereo not given)

>  <target-of-assay>
SN12C renal

>  <TGI>
> 100 µM

$$$$
